# System: T1, LAG3 Protein, Human, Recombinant (His Tag) (Sino Biological Catalog No. 16498-H08H) (human, UniProt P18627 23-450)
# T1 construct: Bought protein; also called hLAG3-His; LAG3-His; not shown: His tag
# T1 sequence (looked up): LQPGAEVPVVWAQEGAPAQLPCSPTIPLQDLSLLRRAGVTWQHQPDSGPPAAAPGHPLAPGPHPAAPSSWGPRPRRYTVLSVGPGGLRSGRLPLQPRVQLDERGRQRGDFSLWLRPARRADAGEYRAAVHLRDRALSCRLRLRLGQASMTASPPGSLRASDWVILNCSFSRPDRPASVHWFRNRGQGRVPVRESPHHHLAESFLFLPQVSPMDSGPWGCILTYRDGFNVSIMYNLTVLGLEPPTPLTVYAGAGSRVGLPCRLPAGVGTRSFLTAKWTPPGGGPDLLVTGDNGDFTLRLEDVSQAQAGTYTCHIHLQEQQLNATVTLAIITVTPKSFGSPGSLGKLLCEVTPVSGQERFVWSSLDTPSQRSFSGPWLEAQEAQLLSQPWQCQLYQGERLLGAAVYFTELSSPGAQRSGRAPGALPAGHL
# Procedure Text: ELISA, coated hLAG3-His
Measure: pEC50
Just the number, please; pEC50 means minus log10 of the concentration in mol/L.

Reference set, count: 4
sdAb No. 25-B7 (VHH, Humanized sdAb No. 25; not shown: Fc part implied by anti-human IgG Fc detection) VHH: QLQLVESGGGLVKPGGSLRLSCAASGSIESFSFMGWYRQAPGKQRELVAGFTGAASLSFSTYTDAVKGRFTISRDNAKNSVYLQMNSLRAEDTAVYFCNVDPWSQSWPGRYWGQGTTVTVSS : 8.70
sdAb No. 25-B5 (VHH, Humanized sdAb No. 25; not shown: Fc part implied by anti-human IgG1 Fc detection) VHH: QVQLVESGGGLVKPGGSLRLSCAASGSIESFSFMGWYRQAPGKQREWVAGFTGAASLSFSTYTDAVKGRFTISRDNAKNSLYLQMNSLRAEDTAVYYCNVDPWSQSWPGRYWGQGTTVTVSS : 6.34
sdAb No. 27 (VHH, Fc of the tested form not described; also called sdAb 27; not shown: Fc part implied by anti-human Fc capture and anti-human IgG Fc detection) VHH: QVQLVESGGGLVQPGGSLRLSCAASGFTLDYYAIGWFRQAPGKEREGVSCIRSSDGSTYYADSVKGRFTISSDNTKNTVYLQMNSLKPEDTAVYYCATDRYSDCRGPYENWGQGTQVTVSS : 8.33
sdAb No. 27-H1B3 (VHH, Humanized sdAb No. 27-H1; not shown: Fc part implied by anti-human IgG Fc detection) VHH: QVQLVESGGGLVQPGGSLRLSCAASGFTLDYYAIGWFRQAPGKEREGVSCIRSSDASTYYADSVKGRFTISSDNSKNTVYLQMNSLRAEDTAVYYCATDRYSDCRGPYENWGQGTMVTVSS : 8.68

Identify measured pEC50 corresponding to sdAb No. 25 (VHH, Fc of the tested form not described; also called sdAb 25; sdAb #25; not shown: Fc part implied by anti-human Fc capture and anti-human IgG Fc detection) VHH: QLQLVESGGGLVQAGGSLRLSCAASGSIESFSFMGWYRQAPGKQRELVAGFTGAASLSFSTYTDAVKGRFTISRDNAKNTVYLQMNSLKPEDTAVYFCNVDPWSQSWPGRYWGQGTQVTVSS
8.46
